B1: Protein piccolo, residues 1058 to 1114; numbered along this chain, Q9Y6V0 (parent)
chain: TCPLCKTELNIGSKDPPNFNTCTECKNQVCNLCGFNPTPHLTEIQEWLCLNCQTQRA

Variants of: B1
Assay: abundance fitness (aPCA) (normalised: wild type 0, dead -1); higher = more abundant; growth selection in yeast, the domain comes from the species named
Conditions: Homo sapiens
Listing: abundance fitness of selected variants

{"VARIANT_NOTATION": "L9R", "abundance fitness": -0.156}
{"VARIANT_NOTATION": "N18T", "abundance fitness": -0.089}
{"VARIANT_NOTATION": "N36K", "abundance fitness": 0.08}
{"VARIANT_NOTATION": "L50R", "abundance fitness": 0.182}
{"VARIANT_NOTATION": "L4S", "abundance fitness": 0.006}
{"VARIANT_NOTATION": "T42A", "abundance fitness": 0.055}
{"VARIANT_NOTATION": "I44Q", "abundance fitness": 0.074}
{"VARIANT_NOTATION": "C5T", "abundance fitness": -0.872}
{"VARIANT_NOTATION": "C52Y", "abundance fitness": -0.841}
{"VARIANT_NOTATION": "P3C", "abundance fitness": 0.148}
{"VARIANT_NOTATION": "Q28S", "abundance fitness": 0.007}
{"VARIANT_NOTATION": "N31G", "abundance fitness": 0.028}
{"VARIANT_NOTATION": "I44T", "abundance fitness": -0.273}
{"VARIANT_NOTATION": "H40A", "abundance fitness": 0.076}
{"VARIANT_NOTATION": "L32I", "abundance fitness": -0.097}
{"VARIANT_NOTATION": "L9A", "abundance fitness": 0.032}
{"VARIANT_NOTATION": "N27K", "abundance fitness": -0.03}
{"VARIANT_NOTATION": "P37W", "abundance fitness": -0.012}
{"VARIANT_NOTATION": "K26Q", "abundance fitness": 0.04}
{"VARIANT_NOTATION": "L9M", "abundance fitness": 0.145}
{"VARIANT_NOTATION": "L48R", "abundance fitness": -0.079}
{"VARIANT_NOTATION": "K14I", "abundance fitness": -0.653}
